Data origin, for the record: the supplement of paper PMC8728848

- measurementTarget: Gal(b1-4)GlcNAc(b1-2)Man(a1-6)[Man(a1-3)]Man(b1-4)GlcNAc(b1-4)GlcNAc
- experimentalProtocol: glycan array binding signal (z-score within array); higher = stronger binding
- condition: glycan notation: IUPAC condensed, linker removed
The sample as a whole holds a higher share of the strongest signals than the screen did.
experimentalReadout: glycan array binding signal (z-score)

RobpsCRA (Robinia pseudoacacia) (protein) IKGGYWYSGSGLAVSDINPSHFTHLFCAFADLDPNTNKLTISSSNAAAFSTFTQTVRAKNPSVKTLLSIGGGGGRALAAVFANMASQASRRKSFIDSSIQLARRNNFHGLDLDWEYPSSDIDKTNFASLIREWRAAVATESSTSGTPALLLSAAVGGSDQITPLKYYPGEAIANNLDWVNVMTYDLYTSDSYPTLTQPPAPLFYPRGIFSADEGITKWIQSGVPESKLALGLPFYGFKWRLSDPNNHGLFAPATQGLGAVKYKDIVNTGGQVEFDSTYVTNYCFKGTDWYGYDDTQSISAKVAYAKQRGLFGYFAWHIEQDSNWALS :: 0.031
AT1G73650(15) (Arabidopsis thaliana), F4HRY1 (protein) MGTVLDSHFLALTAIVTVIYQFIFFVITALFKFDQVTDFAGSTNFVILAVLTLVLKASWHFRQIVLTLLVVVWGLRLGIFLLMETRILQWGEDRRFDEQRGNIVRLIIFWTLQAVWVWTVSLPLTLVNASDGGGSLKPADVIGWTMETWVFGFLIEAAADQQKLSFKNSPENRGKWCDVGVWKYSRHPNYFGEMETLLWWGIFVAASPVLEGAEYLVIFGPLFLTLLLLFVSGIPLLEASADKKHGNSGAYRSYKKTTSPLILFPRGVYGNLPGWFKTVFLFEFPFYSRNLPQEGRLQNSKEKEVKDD :: -0.586

Now for a further binder.
Task: Complete the entry with glycan array binding signal (z-score) for MUB70 (Lactobacillus reuteri) (protein) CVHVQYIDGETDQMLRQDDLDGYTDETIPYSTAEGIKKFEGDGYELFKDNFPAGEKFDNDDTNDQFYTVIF
Output: 0.734
